The measured values listed here are drawn from patent US20240252488A1.

molecular target: MLKL (Homo sapiens, UniProt Q8NB16); experiment: MLKL degradation assay in HepG2 cell line (western blot); format: cell-based; design: endogenous in cells; host or cells: HepG2 or HaCaT; details: compound 10 μM; cell line not given
Sequence (Q8NB16 whole entry): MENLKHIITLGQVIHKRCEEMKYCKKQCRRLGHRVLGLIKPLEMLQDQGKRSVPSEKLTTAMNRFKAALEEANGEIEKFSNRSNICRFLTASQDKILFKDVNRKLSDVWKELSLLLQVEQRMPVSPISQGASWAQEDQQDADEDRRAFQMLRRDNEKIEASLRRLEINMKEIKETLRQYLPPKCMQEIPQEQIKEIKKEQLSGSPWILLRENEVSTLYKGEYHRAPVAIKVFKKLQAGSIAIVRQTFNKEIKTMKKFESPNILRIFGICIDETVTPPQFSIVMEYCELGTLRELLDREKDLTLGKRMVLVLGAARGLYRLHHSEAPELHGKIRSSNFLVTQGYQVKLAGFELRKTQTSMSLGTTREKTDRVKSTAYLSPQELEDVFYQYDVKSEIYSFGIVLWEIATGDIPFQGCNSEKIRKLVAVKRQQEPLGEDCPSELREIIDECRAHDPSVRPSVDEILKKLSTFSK
Quick rule for you: Degradation assay (Degradation %) 10 μM at 70% or higher means Y, lower means N.

Example cases with answers are listed next.
{"columns": ["molecule", "assayed-target", "class"],
 "data": [
  ["Nc1ncc(-c2cnn(C3CCN(CC4CCN(CC(=O)N5CCN(c6cccc7c6C(=O)N(C6CCC(=O)NC6=O)C7=O)CC5)CC4)CC3)c2)nc1C(=O)OC(C(=O)Nc1ccc(F)cc1)c1ccccc1 (centres unmarked)", "MLKL (Homo sapiens, UniProt Q8NB16)", "N"],
  ["Nc1ncc(-c2cnn(C3CCN(CCCCCCNC(=O)C4CCN(c5cccc6c5C(=O)N(C5CCC(=O)NC5=O)C6=O)CC4)CC3)c2)nc1C(=O)O[C@@H](C(=O)Nc1ccc(F)cc1)c1ccccc1 (some centres unmarked)", "MLKL (Homo sapiens, UniProt Q8NB16)", "N"],
  ["COc1ccc(C(=O)N2CCC(C(=O)N3CCC(CN4CCC(n5cc(-c6cnc(N)c(C(=O)O[C@@H](C(=O)Nc7ccc(F)cc7)c7ccccc7)n6)cn5)CC4)CC3)CC2)cc1N1CCC(=O)NC1=O", "MLKL (Homo sapiens, UniProt Q8NB16)", "Y"]
]}

Check the entry Nc1ncc(-c2cnn(C3CCN(C(=O)CCC4CCN(C(=O)C5CN(c6ccc7nnn(C8CCC(=O)NC8=O)c(=O)c7c6)C5)CC4)CC3)c2)nc1C(=O)O[C@@H](C(=O)Nc1ccc(F)cc1)c1ccccc1 (some centres unmarked) : does Degradation assay (Degradation %) 10 μM equal or exceed 70%?
Y

---

Molecular target: UniProtKB Q8NB16
Assay: MLKL degradation assay in HepG2 cell line (western blot)
Type: cell-based
Parameters: endogenous in cells; host or cells: HepG2 or HaCaT
Conditions: compound 1 μM; cell line not given
Protocol: MLKL degradation ability was evaluated in the following method. […] For protein preparation after incubation, cells were washed with 1×TBST, and 60 μL of RIPA lysis buffer containing Halt™ Protease and Phosphatase Inhibitor Cocktail was dispensed into each well. […] For protein quantification, after dispensing sample and BCA (0-4 mg/ml) in a 96 well plate, 100 μL of BCA was dispensed and reacted in a 37° C. incubator for 30 minutes. […]
Quick rule for you: Degradation assay (Degradation %) 1 μM at 80% or higher means yes, lower means no.

{"columns": ["molecule", "class"],
 "data": [
  ["Nc1ncc(-c2cnn(C3CCN(C(=O)c4cn(C5CCN(C(=O)C6CCN(c7ccc8c(c7)C(=O)N(C7CCC(=O)NC7=O)C8=O)CC6)CC5)cn4)CC3)c2)nc1C(=O)O[C@@H](C(=O)Nc1ccc(F)cc1)c1ccccc1 (stereo partly drawn) [TDH-363]", "no"],
  ["Nc1ncc(-c2cnn(C3CCN(CC4CCN(CC5CCN(C(=O)CNc6ccc7c(c6)C(=O)N(C6CCC(=O)NC6=O)C7=O)CC5)CC4)CC3)c2)nc1C(=O)O[C@@H](C(=O)Nc1ccc(F)cc1)c1ccccc1 (stereo partly drawn) [TDH-426]", "no"],
  ["Nc1ncc(-c2cnn(C3CCN(C[C@H]4CC[C@H](CNC(=O)COc5ccc6c(c5)C(=O)N(C5CCC(=O)NC5=O)C6=O)CC4)CC3)c2)nc1C(=O)O[C@@H](C(=O)Nc1ccc(F)cc1)c1ccccc1 (stereo partly drawn) [TDH-346]", "yes"],
  ["Nc1ncc(-c2cnn([C@@H]3CCN(CC4CCN(C(=O)CNc5ccc6c(c5)C(=O)N(C5CCC(=O)NC5=O)C6=O)CC4)C3)c2)nc1C(=O)OC(C(=O)Nc1ccc(F)cc1)c1ccccc1 (stereo partly drawn) [TDH-286]", "no"]
]}

Check the entry Nc1ncc(-c2cnn(C3CCN(CCOCCOCCNC(=O)C4CCN(c5cccc6c5C(=O)N(C5CCC(=O)NC5=O)C6=O)CC4)CC3)c2)nc1C(=O)N[C@@H](C(=O)Nc1ccc(F)cc1)c1ccccc1 (stereo partly drawn) [TDH-213] : does Degradation assay (Degradation %) 1 μM equal or exceed 80%?
no

Check the entry Nc1ncc(-c2cnn(C3CCN(CCOC4CCN(C(=O)COc5ccc6c(c5)C(=O)N(C5CCC(=O)NC5=O)C6=O)CC4)CC3)c2)nc1C(=O)O[C@@H](C(=O)Nc1ccc(F)cc1)c1ccccc1 (stereo partly drawn) [TDH-332] : does Degradation assay (Degradation %) 1 μM equal or exceed 80%?
no

Check the entry Nc1ncc(-c2cnn(C3CCN(CCOC4CCN(C(=O)c5ccc6c(N7CCC(=O)NC7=O)coc6c5)CC4)CC3)c2)nc1C(=O)O[C@@H](C(=O)Nc1ccc(F)cc1)c1ccccc1 [TDH-554] : does Degradation assay (Degradation %) 1 μM equal or exceed 80%?
yes

Check the entry Nc1ncc(-c2cnn(C3CCN(C(=O)C4CCN(C(=O)CC5CCN(c6cccc7c6C(=O)N(C6CCC(=O)NC6=O)C7=O)CC5)CC4)CC3)c2)nc1C(=O)O[C@@H](C(=O)Nc1ccc(F)cc1)c1ccccc1 (stereo partly drawn) [TDH-374] : does Degradation assay (Degradation %) 1 μM equal or exceed 80%?
yes
